target: CCK-B receptors (CHO-CCK) (Homo sapiens, UniProt P32239); construct: expressed in transfected cells; host or cells: CHO (CHO-CCK model cells); assay: Calcium flux (Fluo-8) agonist test on CHO-CCK model cells; type: cell-based; conditions: compound at 10 μM; percentage of signal of 20 nM CCK8 alone
Sequence (P32239 whole entry): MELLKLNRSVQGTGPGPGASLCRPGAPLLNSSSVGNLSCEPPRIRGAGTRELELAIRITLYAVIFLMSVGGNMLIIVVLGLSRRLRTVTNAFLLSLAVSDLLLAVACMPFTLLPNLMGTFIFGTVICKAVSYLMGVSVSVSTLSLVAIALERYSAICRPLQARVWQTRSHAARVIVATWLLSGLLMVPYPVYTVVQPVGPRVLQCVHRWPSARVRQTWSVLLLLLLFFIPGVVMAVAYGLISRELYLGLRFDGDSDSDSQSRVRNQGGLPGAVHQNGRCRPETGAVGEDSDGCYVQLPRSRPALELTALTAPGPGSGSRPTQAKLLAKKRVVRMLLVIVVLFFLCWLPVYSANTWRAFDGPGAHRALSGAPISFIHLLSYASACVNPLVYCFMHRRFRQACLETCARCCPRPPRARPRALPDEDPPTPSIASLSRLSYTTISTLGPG
What Agonistic Activity (%) at 10 μM was measured for each of the following?
One number for each entry, in %.

compound="COC(=O)C[C@H](NC(=O)[C@H](CCSC)NC(=O)[C@H](N)Cc1c[nH]c2ccccc12)C(=O)N[C@@H](Cc1ccc(C#N)cc1)C(N)=O [HT-83, D-Trp-Met-Asp(Ome)-Phe(4-CN)-NH2]" measurement_kind="Agonistic Activity (%) at 10 μM" unit_text=% endpoint_value=1.91
compound="COC(=O)C[C@H](NC(=O)[C@H](CCS(C)(=O)=O)NC(=O)[C@H](N)Cc1c[nH]c2ccccc12)C(=O)N[C@@H](Cc1ccc(N=[N+]=[N-])cc1)C(N)=O [HT-133, D-Trp-Met(O2)-Asp(Ome)-Phe(4-N3)-NH2]" measurement_kind="Agonistic Activity (%) at 10 μM" unit_text=% endpoint_value=8.66

Query string: Missing value: Agonistic Activity (%) at 10 μM, CCK-B receptors (CHO-CCK) (Homo sapiens, UniProt P32239), entry COC(=O)C[C@H](NC(=O)[C@H](CC[S+](C)[O-])NC(=O)[C@H](N)Cc1c[nH]c2ccccc12)C(=O)N[C@@H](Cc1ccc(Cl)cc1)C(N)=O (stereo partly drawn) [HT-120, D-Trp-Met(O)-Asp(Ome)-Phe(4-Cl)-NH2] . Fill in?
Result string: −1.00
